Sourced from the EternaBench riboswitch data

A collection of sequences and their measured apparent Kd
- Tested on: MS2 coat protein
- Assay overview: apparent Kd, MS2 coat protein; higher = weaker binding; RNA-MaP array
- Experimental parameters: designed as: ON switch for flavin mononucleotide; no ligand

Some sequences with recorded apparent Kd:
Which apparent Kd is reported for this sequence? "AACGGCUGCGCGUAGGAUAUGGCCCAUCCAACAUGAGGAUCACCCAUGUGCCACGAUGAGACUUCCCAGAAGGACGGUGCGAUGAG"
0.0184 µM

Value lookup for apparent Kd; key = "GCUGCACAUGAGGAUCACCCAUGUACCCUACUGAGAGGAUAUGUGAUCCGUUAGCAAUCCACAGAAGGCUCGGUUC"
0.0512 µM

# input sequence: "UGGAAGAUUGAAGGAUAUCCGGUCAAUUAAUAUGGAGAAGGUCAAUAUAUGGACAUGAGGAUCACCCAUGUAGAGUCAACUCGA" ; wanted: its apparent Kd
0.0385 µM

Moving on to the next sequence.
Field request: apparent Kd | item: "GUUGUCAUCCAAGGAUAUUGUAAAAGGAGUGGGCAAGAAGGUGGAGAGCAUUGAUGAAGGUACACAUGAGGAUCACCCAUGUUC"
0.0336 µM

----------
- System: MS2 coat protein
- Assay overview: apparent Kd, MS2 coat protein; higher = weaker binding; RNA-MaP array
- Experimental parameters: ligand present: flavin mononucleotide; designed as: ON switch for flavin mononucleotide
Cut-off 30 nM on apparent Kd, inclusive. At or above means 1 (yes); below means 0 (no).

Is it the case that "UGCUAAAGUGAGAAGGGUGGACCACUCAUCGAGUAUGACACAUGAGGAUCACCCAUGUACGCUCCACAGGAUAUCAAAUUGAGG" has apparent Kd reaching or exceeding 30 nM?
0 (no)

Threshold query (apparent Kd >= 30 nM) on "ACAUACUUGGGAGGAUAUAUGUUCGUACGCUCGAUAGAAGGCCCAGAAGUAUAAGACAUGAGGAUCACCCAUGUGGCAAGCGUU"
0 (no)

Is it the case that "UAAUCAGUGAUAGGAUAUCGUAGCUCAGAUAGGCGAGAAGGAUCUGACUCCACAUGAGGAUCACCCAUGUUGUACAUACAGGAC" has apparent Kd reaching or exceeding 30 nM?
0 (no)

Assess whether reported apparent Kd for "ACCCGACAUGAGGAUCACCCAUGUGGUUUCGGUCGAGGAUAUUCAAUCUGAAUUAUGUAGGAAGAAGGCGAUACCC" sits at 30 nM or higher.
1 (yes)

Determine whether measured apparent Kd meets or exceeds 30 nM for "UGGUUAACAUGACAUGAGGAUCACCCAUGUCUUGGAAUUACAAGAAGGAAGGACACAGGUAGACCUUAGGAUAUUGUGACUUGA"
0 (no)

Further cases:
Decide: apparent Kd of "CCGGGCAGUUUAGGAUAUACACGUGAUUCAUGCGUAGAAGGAAAUCACAGAAUAGUUUCCUGGACAUGAGGAUCACCCAUGUAG" >= 30 nM?
1 (yes)

Kindly determine if apparent Kd recorded for "CCGGGCGCUUAACAGGAUAUAGCAGUACAUACAUGAGGAUCACCCAUGUCUAUCUUGUAAUAAAGCUAGAAGGGUUCAUCCGAGGU" is above or exactly 30 nM.
0 (no)

----------
- Tested on: MS2 coat protein
- Assay overview: apparent Kd, MS2 coat protein; higher = weaker binding; RNA-MaP array
- Experimental parameters: ligand present: flavin mononucleotide; designed as: OFF switch for flavin mononucleotide
// reported apparent Kd per item
State the answer as a number, implicitly in nM.

Example entries begin here.
Entry "GUUACAUGAGGAUCACCCAUGUGGGCUGUAUGUAGCGCACCUGAGGAUAUGGCCCGGAGGUAGGACCAGAAGGCAGCGAAGAGC" has what apparent Kd?
55.3

Item under review: "UAGGUUCUAGUUUCUGCACAUGAGGAUCACCCAUGUUUAGUAAAGGAUAUCACGGUAAGUCGACGUGAGAAGGUUACGUUAGGG" . Reported apparent Kd?
37

Need apparent Kd, item "GCGGGAGAUCAGAAGGCUAUAACGUUUCACAUGAGGAUCACCCAUGUGGGCUCCUAGGGAUGGAUAGAGGAUAUGACCGAAUAU"
13.3

Next sequence, apparent Kd to be filled in.
Give its apparent Kd value. Item: "UUUAUACAUGAGGAUCACCCAUGUGAGGAUAUAAAGGCGGACACUGCUGUCGAUCGCUUUAGAAGGCACUGGAU"
20
